- method summary: Protein binding to BSA
- Assay type: ADME, Bos taurus
- test conditions: cattle, isolated protein
Catalogue of Activity values
Answer with the number, then the unit.

smiles entry: COc1ccc(C[C@H](N=C(N)N)C(=O)N2CCC[C@@H]2C(=O)NCC(=O)N[C@@H](Cc2c[nH]c3ccccc23)C(=O)N[C@@H](Cc2ccccc2)C(N)=O)cc1
Activity: 45.15%
--
smiles entry: COc1ccc(C[C@H](N=C(N)N)C(=O)N2CCC[C@H]2C(=O)N[C@@H](Cc2c[nH]c3ccccc23)C(=O)N[C@@H](Cc2ccc(Cl)cc2)C(N)=O)cc1
Activity: 65.57%
--
smiles entry: COc1ccc(C[C@H](N=C(N)N)C(=O)N2CCC[C@H]2C(=O)N[C@@H](Cc2c[nH]c3ccccc23)C(=O)N[C@@H](Cc2ccccc2)C(N)=O)cc1
Activity: 40.58%

From here, focus on the item given below.
INPUT: Please report the recorded Activity for COc1ccc(C[C@H](NC(=N)N)C(=O)N2CCC[C@@H]2C(=O)NCC(=O)N[C@@H](Cc2c[nH]c3ccccc23)C(=O)N[C@@H](Cc2ccc(Cl)cc2)C(N)=O)cc1 .
OUTPUT: 62.52%

Origin of the recorded values: ChEMBL document CHEMBL1146349
